System: ENR+CD organoids (ISC to Paneth cell differentiation)
experimentSummary: Primary screen: CCh-stimulated lysozyme secretion LYZ.S, 2.5-D 384-well ENR+CD organoid differentiation
Type: cell-based, mouse
reportedConditions: primary screen, dose 10.00 uM
Lab note: class by Dose.FC.LYZ.S, see lower level: < -0.08 log2 fold change; middle level: ≥ -0.08 log2 fold change and < 0.02 log2 fold change; upper level: ≥ 0.02 log2 fold change

- O=C(N/N=C/c1ccc(O)c(O)c1)c1cc2ccccc2cc1O: upper level
- COc1ccc2c(c1)c(CC(=O)N1CCOCC1)c(C)n2C(=O)c1ccc(Cl)cc1: upper level
- C[C@H](CS)C(=O)N1CCC[C@H]1C(=O)O: upper level
- Cc1c(Cl)cccc1Nc1ccccc1C(=O)O: middle level
- O=C(O)c1cc2cccc([N+](=O)[O-])c2[nH]1: middle level

Classify this molecule: COc1cc(Nc2ncc(F)c(Nc3ccc4c(n3)N(COP(=O)(O)O)C(=O)C(C)(C)O4)n2)cc(OC)c1OC [Fostamatinib (R788)] lower level

Classify this molecule: `C=C1C[C@@H]2[C@H](CC[C@]3(C)C(=O)CC[C@@H]23)[C@@]2(C)C=CC(=O)C=C12` middle level

Classify this molecule: `O=C(O)c1cccc(-c2noc(-c3ccccc3F)n2)c1` middle level

Classify this molecule: `COc1cc2ncnc(Nc3ccc(Cl)cc3F)c2cc1OC` lower level

Classify this molecule: `C/C(=C\C(=O)Nc1ccccc1C(=O)O)c1ccc2ccccc2c1` lower level

* * *

System: ENR+CD organoids (ISC to Paneth cell differentiation)
experimentSummary: Primary screen: CCh-stimulated lysozyme secretion LYZ.S, 2.5-D 384-well ENR+CD organoid differentiation
Type: cell-based, mouse
reportedConditions: primary screen, dose 0.08 uM
Rule: Dose.FC.LYZ.S below -0.01 log2 fold change gives t, anything at or above gives f.

Consider the following illustrative entries.
• CN(C)Cc1ccc(-c2nc3cccc4c3n2CCNC4=O)cc1 = f
• CCCCCCCCCCCC1=C(O)C(=O)C=C(O)C1=O = t

Given the entry `Cn1cc(C2=C(c3cn(C4CCN(Cc5ccccn5)CC4)c4ccccc34)C(=O)NC2=O)c2ccccc21` , would its reported Dose.FC.LYZ.S be below -0.01 log2 fold change? f

Given the entry `CC(C)C[C@H](NC(=O)[C@@H](NC(=O)c1cccc(-c2ccccc2)n1)[C@@H](C)O)B(O)O` , would its reported Dose.FC.LYZ.S be below -0.01 log2 fold change? t

Given the entry `CCOC(=O)[C@H]1O[C@@H]1C(=O)N[C@@H](CC(C)C)C(=O)NCCC(C)C` , would its reported Dose.FC.LYZ.S be below -0.01 log2 fold change? f

* * *

System: ENR+CD organoids
experimentSummary: Primary screen: ATP (CellTiter-Glo 3D, CTG) cell number/viability, 2.5-D 384-well ENR+CD organoids;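 also: compounds given at plating and again on day 3 over a 6-day differentiation from ENR+CV stem-cell-enriched precursors, ATP measured on day 6, plate median as control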
reportedConditions: primary screen, dose 2.00 uM
Kind request: treat -0.5 log2 fold change as inclusive, so Dose.FC.CTG at -0.5 log2 fold change or higher is 1 (yes), anything lower is 0 (no).

Consider the following illustrative entries.
• CCCS(=O)(=O)Nc1ccc(F)c(C(=O)c2c[nH]c3ncc(-c4ccc(Cl)cc4)cc23)c1F = 1 (yes)
• Cc1cc(-c2ccc(CC(=O)Nc3ccc(-c4cccnc4)cc3)cc2)ccn1 = 0 (no)
• COC1CCN(C(=O)c2cc(Cc3n[nH]c(=O)c4ccccc34)ccc2F)CC1 = 1 (yes)

Given the entry COCC[n+]1c2c(n(Cc3cnccn3)c1C)C(=O)c1ccccc1C2=O.[Br-] [YM155 (Sepantronium Bromide)] , answer whether its Dose.FC.CTG meets or surpasses -0.5 log2 fold change. 1 (yes)

Given the entry CCOc1ccccc1-n1c(C(C)N2CCN(C(=O)COc3ccc(Cl)cc3)CC2)nc2ccccc2c1=O (centres unmarked) , answer whether its Dose.FC.CTG meets or surpasses -0.5 log2 fold change. 1 (yes)

Given the entry CCOC(=O)c1cncn1[C@H](C)c1ccccc1 [Etomidate] , answer whether its Dose.FC.CTG meets or surpasses -0.5 log2 fold change. 1 (yes)

Given the entry `COc1ccc2c(c1)c(CC(=O)N1CCOCC1)c(C)n2C(=O)c1ccc(Cl)cc1` , answer whether its Dose.FC.CTG meets or surpasses -0.5 log2 fold change. 1 (yes)

Given the entry CCC(COC(=O)c1cc(OC)c(OC)c(OC)c1)(c1ccccc1)N(C)C (centres unmarked) , answer whether its Dose.FC.CTG meets or surpasses -0.5 log2 fold change. 0 (no)
